melting point reference
The reply should contain only the number, in °C.

These recorded examples may help you get a feel for the data.
CCOC(=O)C(CCc1ccccc1)NC1CCc2ccccc2N(CC(=O)O)C1=O (stereo not drawn) ... 148
O=C1OC2(c3ccccc31)c1ccc(O)c(Br)c1Oc1c2ccc(O)c1Br ... 285
C=CCl ... -154
COC(CNC(c1ccccc1)C(O)c1ccccc1)OC (stereo not drawn) ... 145
ClCc1ccc(CCl)cc1 ... 100

Qu. Would you mind telling me what melting point value was observed for `Clc1cccc2ccccc12` ?
Ans. -2.5

Qu. Now this one: `CCCCCCCCCCCCS(=O)(=O)Cl`
Ans. 40.5

Qu. Now this one: `Cc1cc(=S)cc(C)o1`
Ans. 142

Qu. Now this one: `CC(=O)Nc1ccc(F)cc1F`
Ans. 122

Qu. Now this one: `CCCCCCCCCCCCCCCCCC(=O)OCCOCCOCCOCCO`
Ans. 40

Qu. Now this one: `N#CCc1cc(F)cc(F)c1`
Ans. 35

Qu. Now this one: `Cc1ccc2c(C)cccc2c1`
Ans. -16.9

Qu. Now this one: `Cc1cc(C(=O)O)cc(C)c1F`
Ans. 166

====

API: label(entry) gives fulfilled if the entry's melting point is strictly smaller than 100 °C; on equality or larger values it gives not fulfilled.

O=C(O)CCc1ccc(Cl)cc1 ... not fulfilled
CCOC(=O)CSc1nc(C(C)(C)C)nn1C(=O)N(C)C ... fulfilled
C=C(CCl)CCl ... fulfilled

Qu. is_below(melting point, 100 °C) for `O=C(O)c1ccc(OC(=O)c2ccccc2)cc1` ?
Ans. fulfilled

Qu. Now this one: `CC(=O)c1ccc(C(C)=O)cc1`
Ans. not fulfilled

Qu. Now this one: `O=C(Nc1ccc(Br)cc1)c1cc(Br)ccc1O`
Ans. not fulfilled

Qu. Now this one: `COc1ccc(C/C(=N\O)C(=O)O)cc1`
Ans. not fulfilled

Qu. Now this one: CC1=C(C(=O)OC(C)(C)C)C(c2ccc3c(c2)OCO3)NC(=O)N1 (stereo not drawn)
Ans. not fulfilled

Qu. Now this one: `COC(=O)NN=Cc1c[n+]([O-])c2ccccc2[n+]1[O-]`
Ans. not fulfilled

Qu. Now this one: OC1CC2CCC1C2 (stereo not drawn)
Ans. not fulfilled

====

melting point reference
The reply should contain only the number, in °C.

These recorded examples may help you get a feel for the data.
CC(=O)NCCO ... 16
NC(=O)Nc1ccc(Br)cc1 ... 226
Cc1cccc2cccnc12 ... -80

Qu. Would you mind telling me what melting point value was observed for `CC(C)(C)NC(=O)c1ccccc1` ?
Ans. 134

Qu. Now this one: CC1=C(C(=O)OCc2ccccc2)C(c2ccc3ccccc3c2)NC(=O)N1C (stereo unspecified)
Ans. 150

Qu. Now this one: `CCCCCCCCCCc1cc(-c2cc(-c3ccccc3)c3ccccc3n2)sc1-c1sc(-c2cc(-c3ccccc3)c3ccccc3n2)cc1CCCCCCCCCC`
Ans. 21.9

Qu. Now this one: CC(C(=O)O)c1ccc(Cl)cc1 (stereo unspecified)
Ans. 57

Qu. Now this one: OC1C2COC(O2)C(O)C1O (stereo unspecified)
Ans. 183

Qu. Now this one: `CC(C)C(C)(C)[Si](C)(C)Cl`
Ans. 15

Qu. Now this one: `CCOC(=O)C1=C(C)Nc2ccccc2S1`
Ans. 143

Qu. Now this one: `O=C1C(c2cccc(C3=[N+]([O-])c4cc([N+](=O)[O-])ccc4C3=O)c2)=[N+]([O-])c2cc([N+](=O)[O-])ccc21`
Ans. 287

====

melting point reference

These recorded examples may help you get a feel for the data.
N#Cc1cccc(F)n1 ... 34 °C
Ic1cccc2cccc(I)c12 ... 106 °C
NCc1ccc(CN2CCOCC2)cc1 ... 54 to 55 °C

Qu. Would you mind telling me what melting point value was observed for `CCCCCCCCCCCC1=C(O)C(=O)C=C(O)C1=O` ?
Ans. 142 °C

Qu. Now this one: `C=C[N+](=O)[O-]`
Ans. -55.5 °C

Qu. Now this one: `COC(=O)c1cc(Cl)cc(C(=O)OC)c1`
Ans. 78 to 80 °C

====

melting point reference
The reply should contain only the number, in °C.

These recorded examples may help you get a feel for the data.
CC12CCCCC1CCC1C2CCC2(C)C1CCC21OCCO1 (stereo unspecified) ... 143
Oc1ccc(C(O)C2CCCCN2)cc1O (stereo unspecified) ... 204
NC(c1ccccc1)c1ccccc1 ... 34

Qu. Would you mind telling me what melting point value was observed for `CN(C)CC(=O)N1c2ccccc2Sc2ccccc21` ?
Ans. 144

Qu. Now this one: `Cc1c(-c2ccccc2)[nH]c2ccccc12`
Ans. 91.5

Qu. Now this one: `Nc1cccc(I)c1`
Ans. 33

====

recordedMetric: melting point

O=C(c1ccccn1)c1ccccn1 ... 53 to 55 °C
Cc1ccc(-c2ccc3c(c2)C=CC(=C2C(=O)c4ccccc4C2=O)N3)cc1 ... 241 to 242 °C
NCc1ccc(N2CCCC2)cc1 ... 37 to 44 °C
Nc1ccc2[nH]nnc2c1 ... 160 °C
O=C1CN2CCOC2(c2ccccc2F)c2cc(Br)ccc2N1 (stereo unspecified) ... 185 °C

Qu. Would you mind telling me what melting point value was observed for `Cn1ccc2cc(C=O)ccc21` ?
Ans. 84 to 86 °C

====

melting point reference

These recorded examples may help you get a feel for the data.
Nc1ccc2ccccc2c1N=Nc1ccccc1 ... 103 °C
CN(c1c(Br)cc(Br)cc1Br)c1c([N+](=O)[O-])cc([N+](=O)[O-])cc1C(F)(F)F ... 150 °C
CC(C)C1(C)N=C(c2nc3ccccc3cc2C(=O)O)NC1=O (stereo not given) ... 224 °C

Qu. Would you mind telling me what melting point value was observed for CCC1CC(NC(=O)CNC(=O)CBr)C(C)(C)N1O (stereo not given) ?
Ans. 145 to 147 °C

Qu. Now this one: CC12CCCCC1CCC1C2CCC2(C)C1CCC2(O)C#CCl (stereo not given)
Ans. 163 °C

====

melting point reference
The reply should contain only the number, in °C.

These recorded examples may help you get a feel for the data.
COC1=CC(=O)OC(C=Cc2ccccc2)C1 (centres undefined) ... 106
O=c1[nH]c2ccccc2n1CCCN1CCN(C(c2ccccc2)c2ccccc2)CC1 ... 154

Qu. Would you mind telling me what melting point value was observed for `O=C(c1ccccc1)c1c(-c2ccccc2)n(C(=O)c2ccccc2)c2cc([N+](=O)[O-])ccc12` ?
Ans. 204

Qu. Now this one: `CC(C)COc1ccc2ccccc2c1`
Ans. 31

Qu. Now this one: `CCCCCCCCCCCc1ccccc1`
Ans. -5

Qu. Now this one: `N#C/C(=N\Nc1cc(Cl)c(Cl)cc1Cl)c1nc(-c2ccc(Cl)cc2)cs1`
Ans. 176

Qu. Now this one: CC1(C)CC(=O)C2=C(C1)Nc1c(ccc3ccccc13)C2c1ccc(O)cc1 (centres undefined)
Ans. 312

Qu. Now this one: `Cc1cccc2cc3c(ccc4ccccc43)cc12`
Ans. 156

Qu. Now this one: `Cn1cnc2c1c(=O)[nH]c(=O)n2C`
Ans. 357

Qu. Now this one: CC1=C(C(=O)OCCC(C)C)C(c2ccco2)NC(=O)N1 (centres undefined)
Ans. 176

Qu. Now this one: `Cc1ccc(N(SC(F)(Cl)Cl)S(=O)(=O)N(C)C)cc1`
Ans. 96

Qu. Now this one: O=c1c(C2CC(c3ccc(-c4ccccc4)cc3)Cc3ccccc32)c(O)oc2ccccc12 (centres undefined)
Ans. 213

Qu. Now this one: `COC(=O)C=Cc1ccc(O)c(OC)c1`
Ans. 64

====

Values of melting point greater than or equal to 50 °C map to Met; values below map to Not met.

Reference set, count: 7
C1CCC2CCCC2C1 (stereo not drawn) ... Not met
O=C(NCCBr)c1cc([N+](=O)[O-])cc([N+](=O)[O-])c1 ... Met
COC(=O)c1cc(I)ccc1O ... Met
O=S(=O)(O)c1ccc(Cl)cc1 ... Met
O=C(Nc1cc(Cl)ccc1Cl)C(C(F)(F)F)C(F)(F)F ... Met
CCCCCCCCCOC(C)=O ... Not met
CC(CN(C)C)CN1c2ccccc2CCc2ccccc21 (stereo not drawn) ... Not met

Pending compound:
Qu. Does `CCCCCC#CC(=O)O` have a reported melting point of at least 50 °C?
Ans. Not met

====

melting point reference
The reply should contain only the number, in °C.

These recorded examples may help you get a feel for the data.
O=C(O)c1cc(O)cc(C(=O)O)c1 ... 293
O=C(O)c1cc(O)c2ccccc2n1 ... 282
CC(=O)c1cccnc1C(=O)OC(C)C ... 40
O=CC12CC=CCC1C1CC=CCC1O2 (configuration not stated) ... -80
CC1(C)C(=O)NC1c1ccccc1 (configuration not stated) ... 150

Proceeding to the next compound to report its melting point.
Qu. Would you mind telling me what melting point value was observed for `O=C(c1ccc([N+](=O)[O-])cc1)c1noc(-c2ccc([N+](=O)[O-])cc2)c1S(=O)(=O)c1ccccc1` ?
Ans. 133

Data provenance: a melting point compilation (Tetko et al.)
